Data origin, for the record: ChEMBL document CHEMBL1201862

system: MDA-MB-435; assay: NCI tumour cell line growth inhibition, 48 h
Activity calls are given as the source filed them. Cut-off read from the data, not from the text of the source: active = GI50 up to about 1.1 µM and inactive = higher.
Listing of entries alongside the reported GI50.

{"columns": ["compound", "target.or.test.system", "GI50"],
 "data": [
  ["COP(=O)(/C=C/C(NC(=O)C(Cl)(Cl)Cl)c1ccccc1)OC (stereo not drawn)", "MDA-MB-435", "> 100 µM (inactive)"],
  ["Nc1nccc2c1ncn2C1C=C(CO)C(O)C1O (stereo not drawn)", "MDA-MB-435", "> 100 µM (inactive)"],
  ["CN(C)C1=Nc2ccccc2C(=S)N2CSCC12 (stereo not drawn)", "MDA-MB-435", "> 100 µM (inactive)"]
]}
